test.summary: Plasma stability in vitro, cynomolgus plasma
Format: in vitro ADME
Set-up: dose or concentration left out as unconfirmed
assay.setup: cynomolgus monkey, 37°C, incubated in duplicate, intact peptide by LC/MS/MS, read-out: t1/2 in cynomolgus plasma (converted)
Bridge positions count the residues as written; N and C are the ends. Ends that are not written are not given here.
metric: half-life (h)

substance="Ac-GWGIPWCTLDPGSLQCAWLGKHGGGGSGGVVCQDWEGVELCWQGG (disulfide 7-16, 32-41) [MDK1472]" metric=half-life data_value=104

* * *

experimental.system: human γc ECD (Homo sapiens, UniProt P31785)
Construct: human IL-2Rα(aa 23–254)-Fc, Acro Cat# ILG-H5256; purchased Acro ILG-H5256
Sequence (P31785 23-254): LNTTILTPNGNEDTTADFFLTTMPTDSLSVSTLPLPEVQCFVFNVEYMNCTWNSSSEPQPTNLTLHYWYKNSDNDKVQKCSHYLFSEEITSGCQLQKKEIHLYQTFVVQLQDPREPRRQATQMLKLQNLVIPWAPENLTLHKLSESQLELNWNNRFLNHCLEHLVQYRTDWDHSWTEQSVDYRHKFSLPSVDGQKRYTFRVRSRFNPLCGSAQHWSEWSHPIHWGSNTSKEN
test.summary: Competition binding ELISA, human γc ECD
assay.setup: immobilized Fc-γc ECD; tracer biotinylated MDK1188 pre-complexed with Neutravidin-HRP; 4°C
pIC50: −log10 of the molar value. Bridge positions count the residues as written; N and C are the ends. Ends that are not written are not given here.
metric: pIC50

substance="Ac-GWGIPWCTLDPGSLQCAWLGKHGGGGSGGVVCQDWEGVELCWQGG (disulfide 7-16, 32-41) [MDK1472]" data_value=7.24

Provenance of the data: paper PMC10597491
